This section presents binders with their documented ELISA signal at 450 nm values.
# assay target: human IGF-1 (human) (UniProt P05019)
# Sequence (P05019 49-118 limits assumed): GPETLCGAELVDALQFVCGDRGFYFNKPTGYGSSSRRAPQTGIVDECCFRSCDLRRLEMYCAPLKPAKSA
# assay protocol: specificity phage ELISA
metric name: ELISA signal at 450 nm

binder	metric name	observed result
G36 (Fab, V domains shown) VH: EVQLVESGGGLVQPGGSLRLSCAASGFSIWWSWIHWVRQAPGKGLEWVASISPSSGWTSYADSVKGRFTISADTSKNTAYLQMNSLRAEDTAVYYCARWSSSAFDYWGQGTLVTVSS VL: DIQMTQSPSSLSASVGDRVTITCRASQDVNTAVAWYQQKPGKAPKLLIYSASSLYSGVPSRFSGSRSGTDFTLTISSLQPEDFATYYCQQWWWWPSTFGQGTKVEIK	ELISA signal at 450 nm	0.3
Clone G37 (SX-surface), purified Fab (Fab, V domains shown) VH: EVQLVESGGGLVQPGGSLRLSCAASGFSIWWSWIHWVRQAPGKGLEWVASISPSSGWTSYADSVKGRFTISADTSKNTAYLQMNSLRAEDTAVYYCARWWSSAMDYWGQGTLVTVSS VL: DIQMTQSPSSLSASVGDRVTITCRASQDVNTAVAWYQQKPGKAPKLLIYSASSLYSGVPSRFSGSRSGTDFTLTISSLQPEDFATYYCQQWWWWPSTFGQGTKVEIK	ELISA signal at 450 nm	0.32
G34 (Fab, V domains shown) VH: EVQLVESGGGLVQPGGSLRLSCAASGFSIWWSWIHWVRQAPGKGLEWVASISPSSGWTSYADSVKGRFTISADTSKNTAYLQMNSLRAEDTAVYYCARWWSSAFDYWGQGTLVTVSS VL: DIQMTQSPSSLSASVGDRVTITCRASQDVNTAVAWYQQKPGKAPKLLIYSASSLYSGVPSRFSGSRSGTDFTLTISSLQPEDFATYYCQQSWWWPSTFGQGTKVEIK	ELISA signal at 450 nm	0.35
G30 (Fab, V domains shown) VH: EVQLVESGGGLVQPGGSLRLSCAASGFSIWWSWIHWVRQAPGKGLEWVASISPSSGWTSYADSVKGRFTISADTSKNTAYLQMNSLRAEDTAVYYCARWWSSALDYWGQGTLVTVSS VL: DIQMTQSPSSLSASVGDRVTITCRASQDVNTAVAWYQQKPGKAPKLLIYSASSLYSGVPSRFSGSRSGTDFTLTISSLQPEDFATYYCQQSWWWPSTFGQGTKVEIK	ELISA signal at 450 nm	0.29
G58 (Fab, V domains shown) VH: EVQLVESGGGLVQPGGSLRLSCAASGFYISYSSIHWVRQAPGKGLEWVASISPYSGYTYYADSVKGRFTISADTSKNTAYLQMNSLRAEDTAVYYCARSSYSYYYYSYALDYWGQGTLVTVSS VL: DIQMTQSPSSLSASVGDRVTITCRASQDVNTAVAWYQQKPGKAPKLLIYSASSLYSGVPSRFSGSRSGTDFTLTISSLQPEDFATYYCQQSSSSPSTFGQGTKVEIK	ELISA signal at 450 nm	0.36
